Every entry's value here was drawn from ChEMBL document CHEMBL1156597.

Assign TGI to each entry below.
# Test system: PANC-1
# test-protocol: Cytotoxicity against human PANC1 cells after 48 hrs by SRB assay
# Type: functional
# details: PANC-1, 48 h
Answers without a unit are incomplete; give the number and then its unit.

[
  {
    "test-smiles": "C/C=C1\\NC(=O)[C@H](Cc2ccccc2)NC(=O)[C@@H](C(C)C)NC(=O)[C@@H]([C@H](C)CC)NC(=O)[C@H](NC(=O)[C@H](NC(=O)[C@H](CCCN)NC(=O)[C@H]2CCCN2C(=O)[C@H](NC(=O)[C@@H](NC(=O)[C@@H](NC(=O)[C@H](NC(=O)CCCCCCC)C(C)C)[C@@H](C)O)C(C)C)C(C)C)[C@H](C)CC)[C@H](C)OC(=O)[C@H](C(C)C)NC1=O",
    "experimental-endpoint": "TGI",
    "data-value": "4.21 µM"
  },
  {
    "test-smiles": "C/C=C1\\NC(=O)[C@H](Cc2ccccc2)NC(=O)[C@@H](C(C)C)NC(=O)[C@@H](C(C)C)NC(=O)[C@H](NC(=O)[C@H](NC(=O)[C@H](CCCN)NC(=O)[C@H]2CCCN2C(=O)[C@H](NC(=O)[C@@H](NC(=O)[C@@H](NC(=O)[C@H](NC(=O)CCCC(C)C)C(C)C)[C@@H](C)O)C(C)C)C(C)C)C(C)C)[C@H](C)OC(=O)[C@H](C(C)C)NC1=O",
    "experimental-endpoint": "TGI",
    "data-value": "3.91 µM"
  }
]

Query molecule follows.
Readout TGI for C/C=C1\NC(=O)[C@H](Cc2ccccc2)N(C)C(=O)[C@@H](C(C)C)NC(=O)[C@@H]([C@H](C)CC)NC(=O)[C@H](NC(=O)[C@H](NC(=O)[C@H](CCCN)NC(=O)[C@H]2CCCN2C(=O)[C@H](NC(=O)[C@@H](NC(=O)[C@@H](NC(=O)[C@H](NC(=O)CC[C@@H](C)CC)C(C)C)[C@@H](C)O)C(C)C)C(C)C)[C@H](C)CC)[C@H](C)OC(=O)[C@H](C(C)C)NC1=O , test system PANC-1, was 2.1 µM

###

# Test system: SK-BR-3
# test-protocol: Cytotoxicity against human SKBR3 cells after 48 hrs by SRB assay
# Format: functional
# details: SK-BR-3, 48 h, read-out: LC50 (the source's name)
experimental-endpoint: CC50 (nM)
Numbers only, in nM.

[
  {
    "test-smiles": "C/C=C1\\NC(=O)[C@H](Cc2ccc(Cl)c(Cl)c2)NC(=O)[C@@H](C(C)C)NC(=O)[C@@H]([C@H](C)CC)NC(=O)[C@H](NC(=O)[C@H](NC(=O)[C@H](CCCN)NC(=O)[C@H]2CCCN2C(=O)[C@H](NC(=O)[C@@H](NC(=O)[C@@H](NC(=O)[C@H](NC(=O)CC[C@@H](C)CC)C(C)C)[C@@H](C)O)C(C)C)C(C)C)[C@H](C)CC)[C@H](C)OC(=O)[C@H](C(C)C)NC1=O",
    "unit-info": "nM",
    "CC50": 1030
  },
  {
    "test-smiles": "C/C=C1\\NC(=O)[C@H](Cc2ccccc2)NC(=O)[C@@H](C(C)C)NC(=O)[C@@H]([C@H](C)CC)NC(=O)[C@H](NC(=O)[C@H](NC(=O)[C@H](CCCN)NC(=O)[C@H]2CCCN2C(=O)[C@H](NC(=O)[C@H](CCC(N)=O)NC(=O)[C@@H](NC(=O)[C@H](NC(=O)CCCC(C)C)C(C)C)[C@@H](C)O)C(C)C)[C@H](C)CC)[C@H](C)OC(=O)[C@H](C(C)C)NC1=O",
    "unit-info": "nM",
    "CC50": 2720
  },
  {
    "test-smiles": "C/C=C1\\NC(=O)[C@H](Cc2ccccc2)NC(=O)[C@@H](C(C)C)NC(=O)[C@@H]([C@H](C)CC)NC(=O)[C@H](NC(=O)[C@H](NC(=O)[C@H](CCCNC(=O)CCC2CCCCC2)NC(=O)[C@H]2CCCN2C(=O)[C@H](NC(=O)[C@@H](NC(=O)[C@@H](NC(=O)[C@H](NC(=O)CCCC(C)C)C(C)C)[C@@H](C)O)C(C)C)C(C)C)[C@H](C)CC)[C@H](C)OC(=O)[C@H](C(C)C)NC1=O",
    "unit-info": "nM",
    "CC50": 94.7
  },
  {
    "test-smiles": "C/C=C1\\NC(=O)[C@H](Cc2ccccc2)NC(=O)[C@@H](C(C)C)NC(=O)[C@@H]([C@H](C)CC)NC(=O)[C@H](NC(=O)[C@H](NC(=O)[C@H](CCCN)NC(=O)[C@H]2CCCN2C(=O)[C@H](NC(=O)[C@@H](NC(=O)[C@@H](NC(=O)[C@H](NC(=O)CCCCCC)C(C)C)[C@@H](C)O)C(C)C)C(C)C)[C@H](C)CC)[C@H](C)OC(=O)[C@H](C(C)C)NC1=O",
    "unit-info": "nM",
    "CC50": 363
  }
]

The recorded CC50 for C/C=C1\NC(=O)[C@@H]2C[C@@H]3CCCC[C@@H]3N2C(=O)[C@@H](C(C)C)NC(=O)[C@@H]([C@H](C)CC)NC(=O)[C@H](NC(=O)[C@H](NC(=O)[C@H](CCCN)NC(=O)[C@H]2CCCN2C(=O)[C@H](NC(=O)[C@@H](NC(=O)[C@@H](NC(=O)[C@H](NC(=O)CC[C@@H](C)CC)C(C)C)[C@@H](C)O)C(C)C)C(C)C)[C@H](C)CC)[C@H](C)OC(=O)[C@H](C(C)C)NC1=O is 138
